STUDY SYSTEM: OAT1 (Homo sapiens, UniProt Q4U2R8)
Sequence (Q4U2R8 whole entry): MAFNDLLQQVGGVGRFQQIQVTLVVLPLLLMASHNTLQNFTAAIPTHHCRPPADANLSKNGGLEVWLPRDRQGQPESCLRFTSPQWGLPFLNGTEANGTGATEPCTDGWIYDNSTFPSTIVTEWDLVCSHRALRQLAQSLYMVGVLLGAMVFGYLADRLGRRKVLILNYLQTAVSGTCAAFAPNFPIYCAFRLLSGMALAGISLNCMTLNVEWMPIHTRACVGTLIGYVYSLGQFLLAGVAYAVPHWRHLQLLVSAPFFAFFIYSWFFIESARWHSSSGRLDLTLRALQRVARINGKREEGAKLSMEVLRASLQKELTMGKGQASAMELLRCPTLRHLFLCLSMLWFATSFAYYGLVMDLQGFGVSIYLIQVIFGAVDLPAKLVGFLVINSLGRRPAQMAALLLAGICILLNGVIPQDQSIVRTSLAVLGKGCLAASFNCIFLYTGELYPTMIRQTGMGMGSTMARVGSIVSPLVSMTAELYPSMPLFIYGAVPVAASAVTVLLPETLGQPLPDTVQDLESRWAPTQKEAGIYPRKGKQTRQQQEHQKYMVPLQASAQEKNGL
METHOD NOTES: OAT1 uptake study in ciPTEC-OAT1
CONDITIONS USED: eq 4 fitted to CLint,u, mean ± S.D.
The molecules listed here are annotated with their Vb,max OAT1, Active and Passive Uptake.
Give the value in pmol/min/mg but do not write pmol/min/mg after it.

Known results for molecules:
CCCc1nc(C(C)(C)O)c(C(=O)O)n1Cc1ccc(-c2ccccc2-c2nnn[nH]2)cc1    75.7
Cc1ncc(CO)c(C(=O)O)c1O    222
Nc1ncnc2c1ncn2CCOCP(=O)(O)O    -1083

Now examine the next entry.
Asked: Field: Vb,max OAT1, Active and Passive Uptake (OAT1 (Homo sapiens, UniProt Q4U2R8)). Entry: CCCCNc1cc(C(=O)O)cc(S(N)(=O)=O)c1Oc1ccccc1 [bumetanide]
Given back: 467
